Molecular target: human IRAK4 kinase domain (aa 154-460) (Homo sapiens (Human), UniProt Q9NWZ3)
Assay: IRAK4 Enzymatic DELFIA Assay, Protocol B
Type: biochemical
Conditions: human IRAK4 kinase domain (aa 154-460), 0.6 mM ATP (KM); read-out: IRAK4 DELFIA Protocol B IC50
Text: IRAK4 Enzymatic DELFIA Assay, Protocol B.
endpoint: IC50 (nM)
Lab book: enter the figure in nM, no units written.

Below are worked cases with known answers.
[
  {
    "compound": "CC(C)Oc1cc2c(OCC3CNCCO3)nccc2cc1C(N)=O (stereo not drawn)",
    "endpoint": "IC50",
    "measurement-unit": "nM",
    "assay-result": 386
  },
  {
    "compound": "CC(C)Oc1cc2c(OCC3COCO3)ccnc2cc1C(N)=O (stereo not drawn)",
    "endpoint": "IC50",
    "measurement-unit": "nM",
    "assay-result": 507
  },
  {
    "compound": "CC(C)Oc1cc2c(OCC3CCCCN3C(=O)CC#N)ccnc2cc1C(N)=O (stereo not drawn)",
    "endpoint": "IC50",
    "measurement-unit": "nM",
    "assay-result": 524
  },
  {
    "compound": "CC(C)Oc1cc2c(OCC3CCCN(C)C3)nccc2cc1C(N)=O (stereo not drawn)",
    "endpoint": "IC50",
    "measurement-unit": "nM",
    "assay-result": 1920
  },
  {
    "compound": "CC(C)Oc1cc2c(OC[C@@H]3C[C@](O)(CC(F)(F)F)C(=O)N3)nccc2cc1C(N)=O",
    "endpoint": "IC50",
    "measurement-unit": "nM",
    "assay-result": 60
  }
]

Recall the reported IC50 of CC(C)Oc1cc2c(OC[C@@]34C[C@@H]3CN(C(=O)CC#N)C4)ccnc2cc1C(N)=O [Example 90] when tested on human IRAK4 kinase domain (aa 154-460) (Homo sapiens (Human), UniProt Q9NWZ3).
438

Give human IRAK4 kinase domain (aa 154-460) (Homo sapiens (Human), UniProt Q9NWZ3) IC50 for the following compound: CC(C)Oc1cc2c(OC[C@H]3CNC(=O)O3)ccnc2cc1C(N)=O
5.8

Write down measured IC50 (human IRAK4 kinase domain (aa 154-460) (Homo sapiens (Human), UniProt Q9NWZ3)) for this compound. CC(C)Oc1cc2c(OC[C@@]34CNC[C@@H]3C4)nccc2cc1C(N)=O
84

For human IRAK4 kinase domain (aa 154-460) (Homo sapiens (Human), UniProt Q9NWZ3), give IC50 of the listed compound: CC(C)Oc1cc2c(OC[C@@H]3CC(C)C(=O)N3)nccc2cc1C(N)=O (stereo partly drawn)
16

----------
Biological target: human IRAK4 kinase domain (aa 154-460) (Homo sapiens (Human), UniProt Q9NWZ3)
Experiment: IRAK4 Enzymatic DELFIA Assay, Protocol B
Format: biochemical
Conditions: human IRAK4 kinase domain (aa 154-460), 0.6 mM ATP (KM); read-out: IRAK4 DELFIA Protocol B IC50
Recorded measurements of log10 IC50, one per entry
Give log10 of IC50, with IC50 taken in nM.

Some compounds with recorded log10 IC50:
[
  {
    "compound": "CC(C)Oc1cc2c(OC[C@@H]3CNCCO3)nccc2cc1C(N)=O",
    "assay-result": 3.55
  },
  {
    "compound": "CC(C)Oc1cc2c(OC[C@H]3CCN(C(=O)CC#N)C3)nccc2cc1C(N)=O",
    "assay-result": 2.41
  },
  {
    "compound": "CC(C)Oc1cc2c(O[C@@H]3CC[C@H]4CC(=O)N[C@H]43)nccc2cc1C(N)=O",
    "assay-result": 2.62
  },
  {
    "compound": "CC(C)Oc1cc2c(OC(C)C3CCC3)ccnc2cc1C(N)=O (centres unmarked)",
    "assay-result": 2.92
  }
]

Read the next record carefully.
Identify measured log10 IC50 associated with CC(C)Oc1cc2c(OCC3CCN(C(=O)CC#N)CC3)nccc2cc1C(N)=O
3.11

----------
Biological target: human IRAK4 FL (Full Length) (Homo sapiens (Human), UniProt Q9NWZ3)
Sequence (Q9NWZ3 whole entry): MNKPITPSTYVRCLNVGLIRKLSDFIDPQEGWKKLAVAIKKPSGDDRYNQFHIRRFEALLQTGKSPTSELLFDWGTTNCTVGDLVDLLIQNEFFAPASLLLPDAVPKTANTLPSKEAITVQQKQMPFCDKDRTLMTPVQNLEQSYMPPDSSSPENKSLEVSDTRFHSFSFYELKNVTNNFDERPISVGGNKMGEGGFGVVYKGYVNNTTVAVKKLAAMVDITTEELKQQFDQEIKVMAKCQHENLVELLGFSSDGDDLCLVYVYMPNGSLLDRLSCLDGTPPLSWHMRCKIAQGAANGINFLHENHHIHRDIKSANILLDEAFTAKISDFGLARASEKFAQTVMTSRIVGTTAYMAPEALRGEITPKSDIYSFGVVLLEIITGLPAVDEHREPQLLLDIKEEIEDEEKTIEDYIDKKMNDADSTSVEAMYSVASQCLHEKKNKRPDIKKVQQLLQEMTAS
Test: IRAK4 Enzymatic DELFIA Assay, Protocol A
Assay type: biochemical
Conditions: human IRAK4 FL, 0.6 mM ATP (KM); read-out: IRAK4 DELFIA Protocol A IC50
# reported pIC50; entries follow
# pIC50: negative log10 of molar concentration; output just the value

[
  {
    "molecule": "CC(C)Oc1cc2c(OCC3NC(=O)C4CCCCC34)nccc2cc1C(N)=O (centres unmarked)",
    "pIC50": 6.79
  },
  {
    "molecule": "COc1cc2c(OC[C@@H]3C[C@@H](C)C(=O)N3)nccc2cc1C(N)=O",
    "pIC50": 6.69
  },
  {
    "molecule": "COC[C@@H]1[C@H]2C(=O)N[C@H](COc3nccc4cc(C(N)=O)c(OC)cc34)[C@@H]12",
    "pIC50": 6.68
  },
  {
    "molecule": "CC(C)Oc1cc2c(OC[C@@H]3C[C@](C)(F)C(=O)N3)nccc2cc1C(N)=O",
    "pIC50": 9.00
  },
  {
    "molecule": "COc1cc2c(OC[C@@H]3CC(F)(F)C(=O)N3)nccc2cc1C(N)=O",
    "pIC50": 9.70
  }
]

Return reported pIC50. Input molecule: COc1cc2c(OC[C@H]3NC(=O)O[C@@H]3C)cccc2cc1C(N)=O
8.38

// Input: COC[C@H]1[C@@H](COc2nccc3cc(C(N)=O)c(OC)cc23)NC(=O)C1(F)F . Output its pIC50 only.
9.22

----------
Target: human IRAK4 FL (Full Length) (Homo sapiens (Human))
Assay: IRAK4 Enzymatic DELFIA Assay, Protocol A
Assay type: biochemical
Conditions: human IRAK4 FL, 0.6 mM ATP (KM); read-out: IRAK4 DELFIA Protocol A IC50
pIC50: −log10 of the molar value.
Kindly return Condition met if reported pIC50 is no lower than 8; return Condition not met if it is lower.

Solved cases below.
[
  {
    "given-smiles": "CC(C)Oc1cc2c(OC[C@@H]3C[C@@H](CC(F)(F)F)C(=O)N3)nccc2cc1C(N)=O",
    "tgt": "human IRAK4 FL (Full Length) (Homo sapiens (Human))",
    "discrete-label": "Condition met"
  },
  {
    "given-smiles": "CC(C)Oc1cc2c(OC[C@H]3NC(=O)[C@H](F)[C@H]3C)nccc2cc1C(N)=O",
    "tgt": "human IRAK4 FL (Full Length) (Homo sapiens (Human))",
    "discrete-label": "Condition met"
  },
  {
    "given-smiles": "COc1cc2c(OC[C@H]3NC(=O)[C@H]4[C@@H]3C4(Cl)Cl)nccc2cc1C(N)=O",
    "tgt": "human IRAK4 FL (Full Length) (Homo sapiens (Human))",
    "discrete-label": "Condition not met"
  },
  {
    "given-smiles": "CC(C)Oc1cc2c(OC[C@@H]3CCC(=O)N3)ncc(-c3ncc(Cl)cn3)c2cc1C(N)=O",
    "tgt": "human IRAK4 FL (Full Length) (Homo sapiens (Human))",
    "discrete-label": "Condition not met"
  },
  {
    "given-smiles": "CC(C)Oc1cc2c(OC[C@@H]3CNC(=O)N3)nccc2cc1C(N)=O",
    "tgt": "human IRAK4 FL (Full Length) (Homo sapiens (Human))",
    "discrete-label": "Condition not met"
  },
  {
    "given-smiles": "CC[C@@]1(F)C[C@@H](COc2ccnc3cc(C(N)=O)c(OC)cc23)NC1=O",
    "tgt": "human IRAK4 FL (Full Length) (Homo sapiens (Human))",
    "discrete-label": "Condition not met"
  },
  {
    "given-smiles": "CC(C)Oc1cc2c(OC[C@]34CCC[C@H]3CNC4)nccc2cc1C(N)=O",
    "tgt": "human IRAK4 FL (Full Length) (Homo sapiens (Human))",
    "discrete-label": "Condition not met"
  },
  {
    "given-smiles": "CC(C)Oc1cc2c(OC[C@@H]3C[C@@H](F)C(=O)N3)nccc2cc1C(N)=O",
    "tgt": "human IRAK4 FL (Full Length) (Homo sapiens (Human))",
    "discrete-label": "Condition met"
  },
  {
    "given-smiles": "CC(C)Oc1cc2c(OC[C@@H]3CCN(C(=O)CC#N)C3)ccnc2cc1C(N)=O",
    "tgt": "human IRAK4 FL (Full Length) (Homo sapiens (Human))",
    "discrete-label": "Condition not met"
  },
  {
    "given-smiles": "CC[C@H]1C[C@@H](COc2nccc3cc(C(N)=O)c(OC(C)C)cc23)NC1=O",
    "tgt": "human IRAK4 FL (Full Length) (Homo sapiens (Human))",
    "discrete-label": "Condition met"
  }
]

Does the molecule COc1cc2c(OC[C@@H]3C[C@](C)(F)C(=O)N3)ccnc2cc1C(N)=O have recorded pIC50 that is 8 or more?
Condition met

Quick check: does COc1cc2c(OC[C@H]3NC(=O)[C@@H]4[C@H](CO)[C@@H]43)nccc2cc1C(N)=O have pIC50 greater than or equal to 8?
Condition not met

Provenance of the data: patent US10329302B2
